- Test system: Vero E6 infected with SARS-CoV-2
- TEST_DESCRIPTION: SARS-CoV-2 infection rate relative to infected DMSO; higher = more infection, active = 60 or less
- CONDITIONS: 24 h
List of SARS-CoV-2 infection rate values.
# value in %; strip the unit string

Worked examples, 10 molecules total:
>>> reported("N#CC1(c2ccc(NC(=O)c3cccnc3NCc3ccncc3)cc2)CCCC1 [apatinib] (10 µM)")
107
>>> reported("CC(C)C[C@H](NC(=O)CNC(=O)c1cc(Cl)ccc1Cl)B(O)O [ixazomib] (0.833333 µM)")
93.5
>>> reported("CC(C)(O)CC[C@@H](O)[C@](C)(O)[C@H]1CC[C@@]2(O)C3=CC(=O)[C@@H]4C[C@@H](O)[C@@H](O)C[C@]4(C)[C@H]3CC[C@]12C [20-hydroxyecdysone] (10 µM)")
108
>>> reported("NS(=O)(=O)NCCNc1nonc1/C(=N/O)Nc1ccc(F)c(Br)c1 (10 µM)")
112
>>> reported("C[C@@H](Oc1ccc(Cl)cc1)c1ccnc2ncnn12 (10 µM)")
112
>>> reported("CC1(C)CNc2cc(NC(=O)c3cccnc3NCc3ccncc3)ccc21 [motesanib] (10 µM)")
108
>>> reported("Nc1ccn([C@H]2CC[C@@H](CO)O2)c(=O)n1 [zalcitabine] (10 µM)")
104
>>> reported("O=C1c2cccc(O)c2C(=O)c2c(O)cc(CO)cc21 [aloe-emodin] (10 µM)")
101
>>> reported("CCN(c1cc(-c2ccc(CN3CCOCC3)cc2)cc(C(=O)NCc2c(C)cc(C)[nH]c2=O)c1C)C1CCOCC1 [tazemetostat] (10 µM)")
104
>>> reported("CCCCNc1c(C(=O)OCC)c(C)nc2c1cnn2CC [tracazolate] (10 µM)")
92.5

Name the reported SARS-CoV-2 infection rate value associated with the molecule CCc1cccc(CC)c1NC(=O)N1Cc2[nH]nc(NC(=O)c3ccc(N4CCN(C)CC4)cc3)c2C1 (10 µM)
113

Name the reported SARS-CoV-2 infection rate value associated with the molecule NC(=S)N/N=C/c1ncccc1N [triapine] (0.833333 µM)
106

Name the reported SARS-CoV-2 infection rate value associated with the molecule CCCCC/C=C\C=C\CCCCCCCCC(=O)O [trans-10,cis-12-conjugated-linoleic-acid] (10 µM)
104

Name the reported SARS-CoV-2 infection rate value associated with the molecule Cc1cccc(C)c1NC(=O)C[N+](C)(C)C (10 µM)
97

Name the reported SARS-CoV-2 infection rate value associated with the molecule CCOc1cncc(/C=C/CCNC)c1 (10 µM)
108

Name the reported SARS-CoV-2 infection rate value associated with the molecule CC(C)Cn1cnc2c(N)nc3ccccc3c21 [imiquimod] (10 µM)
106

Name the reported SARS-CoV-2 infection rate value associated with the molecule O=C1C[C@@H](c2ccc(O)cc2)Oc2cc(O)ccc21 (10 µM)
110

====

- System: Vero E6 infected with SARS-CoV-2
- TEST_DESCRIPTION: morphology score (similarity to uninfected cells); higher = more like uninfected cells
- CONDITIONS: 24 h
VALUE_TYPE: morphology score
Respond with the number and no other words.

>>> reported("C=C(c1ccccc1OCc1cccc(Cl)c1)n1ccnc1 [croconazole] (10 µM)")
0.0614

Lab note: need morphology score for O=[N+]([O-])/N=C1\NCCN1Cc1ccc(Cl)nc1 [imidacloprid] (10 µM) on Vero E6 infected with SARS-CoV-2, anyone have it?
0.114

Lab note: need morphology score for CC(=O)[O-].CC(=O)[O-].N.NC1CCCCC1.[Cl-].[Cl-].[Pt+4] [satraplatin] (0.833333 µM) on Vero E6 infected with SARS-CoV-2, anyone have it?
0.00101

Lab note: need morphology score for FC(F)(F)c1ccc(CNc2ccc(Cc3c[nH]c4ncccc34)cn2)cc1 (10 µM) on Vero E6 infected with SARS-CoV-2, anyone have it?
0.0358

Lab note: need morphology score for COc1ccc2nc3ccc(Cl)cc3c(SCCCN)c2c1 (10 µM) on Vero E6 infected with SARS-CoV-2, anyone have it?
0.0488

Lab note: need morphology score for CCCCCCCC/C=C\CCCCCCCC(N)=O [oleamide] (10 µM) on Vero E6 infected with SARS-CoV-2, anyone have it?
0.242

Lab note: need morphology score for CCS(=O)(=O)N1CCC([C@@H](C)n2c(C)c(C(=O)NCc3c(OC)cc(C)[nH]c3=O)c3ccccc32)CC1 (10 µM) on Vero E6 infected with SARS-CoV-2, anyone have it?
-0.000259

Lab note: need morphology score for CN(C(=O)CN1C(=O)COc2cc(Cl)c(Cl)cc21)[C@@H](CN1CCCC1)c1ccc(-c2cccc(C(N)=O)c2)cc1 (0.833333 µM) on Vero E6 infected with SARS-CoV-2, anyone have it?
0.0807

====

List of inhibition of SARS-CoV-2 cytopathic effect values.
- System: Vero E6 infected with SARS-CoV-2
- TEST_DESCRIPTION: inhibition of SARS-CoV-2 cytopathic effect; higher = more antiviral protection, active = above 15
- CONDITIONS: 8.33 nM; 48 h
# value in %; strip the unit string

Worked examples, 10 compounds total:
>>> reported("Cc1cccc(C)c1NC(=O)CC12CCCN1CCC2 [pilsicainide]")
2.77
>>> reported("CN(C)CCCNC(=O)c1ccc(-c2cc(O)c3ncccc3c2)cc1")
-0.41
>>> reported("CC(CNC1CCCCC1)OC(=O)c1ccccc1 (configuration not stated)")
-0.38
>>> reported("CC(C)CCN1c2nc(Nc3cc(F)c(O)c(F)c3)ncc2N(C)C(=O)[C@@H]1C")
-2.75
>>> reported("O=C(/C=C\\n1cnc(-c2cc(C(F)(F)F)cc(C(F)(F)F)c2)n1)NNc1cnccn1 [selinexor]")
-3.07
>>> reported("CN(C)N(C)C(=O)[C@@]1(Cc2ccccc2)CCCN(C(=O)[C@@H](Cc2c[nH]c3ccccc23)NC(=O)C(C)(C)N)C1")
-1
>>> reported("Cc1cc(C(C#N)c2ccc(Cl)cc2)c(Cl)cc1NC(=O)c1cc(I)cc(I)c1O (configuration not stated)")
1.55
>>> reported("N#Cc1cn([C@@H]2O[C@H](CO)[C@@H](O)[C@H]2O)c2ncnc(N)c12")
2.87
>>> reported("O=C(O)/C=C/c1ccc(O)cc1")
-1.82
>>> reported("C=C1/C(=C\\C=C2/CCC[C@]3(C)[C@@H]([C@H](C)CCCC(C)C)CC[C@@H]23)C[C@@H](O)C[C@@H]1O")
-0.82

Name the reported inhibition of SARS-CoV-2 cytopathic effect value associated with the compound C[N@+]1(CC2CC2)CC[C@]23c4c5ccc(O)c4O[C@H]2C(=O)CC[C@@]3(O)[C@H]1C5 [methylnaltrexone]
-0.19

Name the reported inhibition of SARS-CoV-2 cytopathic effect value associated with the compound `COc1ccc(OC)c(CN(C(C)=O)c2cc(F)ccc2Oc2ccccc2)c1`
-0.16

Name the reported inhibition of SARS-CoV-2 cytopathic effect value associated with the compound `CNC(=O)c1c(-c2ccc(F)cc2)oc2cc(N(CCO)S(C)(=O)=O)c(C3CC3)cc12`
0.12

Name the reported inhibition of SARS-CoV-2 cytopathic effect value associated with the compound `CN(C)c1nc(N)c(C(=O)Nc2cccnc2)nc1Cl`
4.72

Name the reported inhibition of SARS-CoV-2 cytopathic effect value associated with the compound C[C@H]1O[C@@H](O[C@H]2CC[C@@]3(C)[C@H](CC[C@@H]4[C@@H]3C[C@@H](O)[C@]3(C)[C@@H](C5=CC(=O)OC5)CC[C@]43O)C2)C[C@H](O)[C@@H]1O[C@H]1C[C@H](O)[C@H](O[C@H]2C[C@H](O)[C@H](O[C@@H]3O[C@H](CO)[C@@H](O)[C@H](O)[C@H]3O)[C@@H](C)O2)[C@@H](C)O1 [deslanoside]
-4.74

Name the reported inhibition of SARS-CoV-2 cytopathic effect value associated with the compound `C=CC(=O)Nc1cccc(Oc2nc(Nc3ccc(N4CCN(C)CC4)cc3OC)ncc2Cl)c1`
3.52

Name the reported inhibition of SARS-CoV-2 cytopathic effect value associated with the compound OC(CCN1CCCCC1)(c1ccccc1)C1CCCCC1 (configuration not stated)
-7.63

====

- Test system: Vero E6 infected with SARS-CoV-2
- TEST_DESCRIPTION: morphology score (similarity to uninfected cells); higher = more like uninfected cells
- CONDITIONS: 24 h
Label scheme for morphology score: lower than -0.07 is No, -0.07 and above is Yes.

>>> class("O=C(Cc1ccc(-c2ccc(OCCN3CCOCC3)cc2)cn1)NCc1ccccc1 (10 µM)")
"No"

Determine whether this compound has morphology score no lower than -0.07: NC(=S)N/N=C/c1coc2ccccc2c1=O.[Cl][Cu][Cl] (10 µM)
No

Determine whether this compound has morphology score no lower than -0.07: Cc1ccc(Cl)c(OC[C@H](O)CNC(C)C)c1 [1-(2-chloro-5-methylphenoxy)-3-(isopropylamino)-2-propanol] (10 µM)
Yes

Determine whether this compound has morphology score no lower than -0.07: Oc1c(Cl)cc(Cl)c2cccnc12 [chloroxine] (10 µM)
Yes

Determine whether this compound has morphology score no lower than -0.07: CC(C)c1ccc(NC(=O)c2cccs2)c(-c2nc3ccccc3[nH]c2=O)c1 (10 µM)
Yes

Determine whether this compound has morphology score no lower than -0.07: Cc1cc(CC(C)CC(C)(C)C)n(O)c(=O)c1 (stereo not drawn) [piroctone-olamine] (10 µM)
Yes

Determine whether this compound has morphology score no lower than -0.07: COc1ccc2cc([C@H](C)C(=O)O)ccc2c1 [naproxen] (10 µM)
Yes

Determine whether this compound has morphology score no lower than -0.07: CC(C)[C@@H](CS(=O)(=O)C(C)C)N1C(=O)[C@@](C)(CC(=O)O)C[C@H](c2cccc(Cl)c2)[C@H]1c1ccc(Cl)cc1 (10 µM)
No

Determine whether this compound has morphology score no lower than -0.07: Cc1cccc(C(=O)O)c1O [hydroxytoluic-acid] (10 µM)
No

Determine whether this compound has morphology score no lower than -0.07: O=C(O)CC[C@H]1CC[C@@](c2cc(F)ccc2F)(S(=O)(=O)c2ccc(Cl)cc2)CC1 (10 µM)
Yes

Determine whether this compound has morphology score no lower than -0.07: N#Cc1c(N)nc(SCc2ncc[nH]2)c(C#N)c1-c1ccc(O)cc1 (10 µM)
Yes

Determine whether this compound has morphology score no lower than -0.07: C[C@]1(c2nc3c(C(N)=O)cccc3[nH]2)CCCN1 [veliparib] (10 µM)
Yes

Determine whether this compound has morphology score no lower than -0.07: CC(CCc1ccccc1)NCC(O)c1ccc(O)c(C(N)=O)c1 (stereo not drawn) [labetalol] (10 µM)
No

Determine whether this compound has morphology score no lower than -0.07: CC(=O)N(O)C/C=C/c1cccc(Oc2ccccc2)c1 (10 µM)
Yes

Determine whether this compound has morphology score no lower than -0.07: O=C1Cc2c([nH]c3ccc(Br)cc23)-c2ccccc2N1 [kenpaullone] (10 µM)
Yes

Determine whether this compound has morphology score no lower than -0.07: O=C(O)c1cn(C2CC2)c2cc(N3CCNCC3)c(F)cc2c1=O [ciprofloxacin] (10 µM)
Yes

Determine whether this compound has morphology score no lower than -0.07: COc1ccc2nc3c(c(N)c2c1)CCCC3 [7-methoxytacrine] (10 µM)
Yes

Attribution: the supplement of paper PMC13380429
